# Subject Of Test: FGFR4 (human) (UniProt P22455)
# Sequence (P22455 whole entry, looked up): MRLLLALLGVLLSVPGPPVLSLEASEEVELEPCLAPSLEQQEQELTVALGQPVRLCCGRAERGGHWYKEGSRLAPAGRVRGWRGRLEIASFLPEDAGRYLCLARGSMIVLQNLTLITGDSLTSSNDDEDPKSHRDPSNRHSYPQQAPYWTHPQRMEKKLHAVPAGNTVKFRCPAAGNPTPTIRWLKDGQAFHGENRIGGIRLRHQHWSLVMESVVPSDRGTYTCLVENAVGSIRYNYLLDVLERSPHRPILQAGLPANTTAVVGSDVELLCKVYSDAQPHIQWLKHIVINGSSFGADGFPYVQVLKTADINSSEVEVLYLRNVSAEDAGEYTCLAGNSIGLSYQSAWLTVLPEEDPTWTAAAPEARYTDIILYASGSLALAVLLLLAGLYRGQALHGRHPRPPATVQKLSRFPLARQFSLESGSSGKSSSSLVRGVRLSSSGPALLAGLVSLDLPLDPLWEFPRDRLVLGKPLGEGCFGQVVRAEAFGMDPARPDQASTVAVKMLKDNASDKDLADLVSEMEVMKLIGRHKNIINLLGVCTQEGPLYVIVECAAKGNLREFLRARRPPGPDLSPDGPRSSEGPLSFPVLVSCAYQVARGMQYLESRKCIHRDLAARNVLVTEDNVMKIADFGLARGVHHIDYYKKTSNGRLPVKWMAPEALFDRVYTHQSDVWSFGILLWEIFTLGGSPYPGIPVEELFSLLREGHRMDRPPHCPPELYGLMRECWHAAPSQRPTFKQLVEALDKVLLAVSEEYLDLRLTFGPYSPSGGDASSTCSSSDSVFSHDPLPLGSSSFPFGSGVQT
# Assay Method Text: radiometric filter-binding kinase assay, Kinase HotSpot
# Assay Context: compound 0.5 µM; ATP 10 µM
Readout Label: residual activity (%)
Give your result in % as a bare value.

Example cases with answers are listed next.
State its residual activity on FGFR4 (human) (UniProt P22455): `Fc1ccc(-c2nc3n(c2-c2ccncc2)CCS3)cc1`
82.8

State its residual activity on FGFR4 (human) (UniProt P22455): `CCCCc1c(-c2ccc(OC)cc2)[nH]c2nccnc12`
92.5

State its residual activity on FGFR4 (human) (UniProt P22455): `Ic1cccc(CSc2nnc(-c3ccncc3)o2)c1`
97.2

More entries:
State its residual activity on FGFR4 (human) (UniProt P22455): `NC(=O)c1cccc(-c2cc(Nc3ccc(OC(F)(F)F)cc3)ncn2)c1`
92.9

====

# Subject Of Test: UniProtKB Q9Y6E0
# Sequence (Q9Y6E0 whole entry, looked up): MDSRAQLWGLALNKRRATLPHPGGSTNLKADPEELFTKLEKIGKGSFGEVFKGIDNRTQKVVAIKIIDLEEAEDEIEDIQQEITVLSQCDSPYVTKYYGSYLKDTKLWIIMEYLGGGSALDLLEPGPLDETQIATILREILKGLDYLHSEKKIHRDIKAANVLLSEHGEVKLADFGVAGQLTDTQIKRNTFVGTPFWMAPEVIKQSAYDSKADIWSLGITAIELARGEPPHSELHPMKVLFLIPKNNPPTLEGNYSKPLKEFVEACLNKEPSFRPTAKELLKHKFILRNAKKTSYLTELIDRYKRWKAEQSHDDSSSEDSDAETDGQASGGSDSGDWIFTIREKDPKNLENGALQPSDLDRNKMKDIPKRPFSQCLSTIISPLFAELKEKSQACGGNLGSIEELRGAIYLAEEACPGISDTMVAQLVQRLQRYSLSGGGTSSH
# Assay Method Text: radiometric filter-binding kinase assay, Kinase HotSpot
# Assay Context: compound 0.5 µM; ATP 10 µM
Readout Label: residual activity

Example cases with answers are listed next.
I would be grateful if you could share the reported residual activity for `Cc1nc(-c2ccccc2)c(-c2ccncc2)o1` .
96.7%

I would be grateful if you could share the reported residual activity for `CN(C)c1ccc(/C=C2\C(=O)Nc3ccccc32)cc1` .
96.7%

I would be grateful if you could share the reported residual activity for `O=C1NC(=O)c2c1c1c3ccccc3[nH]c1n1cncc21` .
48.4%

I would be grateful if you could share the reported residual activity for `O=C(c1cc2cc(O)ccc2[nH]1)c1cc2cc(O)ccc2[nH]1` .
70.4%

I would be grateful if you could share the reported residual activity for `CCCCc1c(-c2ccc(OC)cc2)[nH]c2nccnc12` .
87.3%

// next entry
I would be grateful if you could share the reported residual activity for `COc1cc2ncnc(Nc3ccc(Oc4ccccc4)cc3)c2cc1OC` .
91.6%

====

# Subject Of Test: CLK2 (human)
# Assay Method Text: radiometric filter-binding kinase assay, Kinase HotSpot
# Assay Context: compound 0.5 µM; ATP 10 µM
Documented residual activity across a set of compounds
Give your result in % as a bare value.

Example cases with answers are listed next.
I would be grateful if you could share the reported residual activity for `CO[C@@H]1[C@H](N(C)C(=O)c2ccccc2)C[C@H]2O[C@]1(C)n1c3ccccc3c3c4c(c5c6ccccc6n2c5c31)C(=O)NC4` .
36

I would be grateful if you could share the reported residual activity for `Cc1cncc2cccc(S(=O)(=O)N3CCCN(C(=O)CN)C[C@H]3C)c12` .
102

I would be grateful if you could share the reported residual activity for `Cc1nc(-c2ccccc2)c(-c2ccncc2)o1` .
98.2

I would be grateful if you could share the reported residual activity for `COc1ccc(S(=O)(=O)N(CCO)c2ccccc2CN(C)C/C=C/c2ccc(Cl)cc2)cc1` .
96.7

I would be grateful if you could share the reported residual activity for `COc1ccc2c(c1)/C(=C/c1cnc[nH]1)C(O)=N2` .
80.6

I would be grateful if you could share the reported residual activity for `COc1ccc(C(=O)Nc2sc3c(c2C(N)=O)CCCC3)cc1OC` .
86.5

More entries:
I would be grateful if you could share the reported residual activity for `CN(C)c1ccc(/C=C2\C(=O)Nc3ccccc32)cc1` .
99.7

I would be grateful if you could share the reported residual activity for `N#C/C(=C\c1ccc(O)c(O)c1)C(=O)NCc1ccccc1` .
110

I would be grateful if you could share the reported residual activity for `O=C1C(Cl)=C(N2C(=O)CCC2=O)C(=O)c2ccccc21` .
90.7
